B1: Double-stranded RNA-binding protein Staufen homolog 1, residues 183 to 249; numbered along this chain, O95793 (parent)
chain: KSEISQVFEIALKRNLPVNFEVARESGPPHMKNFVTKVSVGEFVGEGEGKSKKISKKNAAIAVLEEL

- Variants of: B1
- EXPERIMENTAL_PROTOCOL: abundance fitness (aPCA) (normalised: wild type 0, dead -1); higher = more abundant; growth selection in yeast, the domain comes from the species named
- CONDITION_LABEL: Homo sapiens
PROPERTY: abundance fitness

Ask | Could you please provide reported abundance fitness for P28Q ? Thanks!
Reply | -0.202

Ask | Could you please provide reported abundance fitness for K1I ? Thanks!
Reply | -0.201

Ask | Could you please provide reported abundance fitness for F43T ? Thanks!
Reply | -0.195
